molecular target: C-C chemokine receptor type 6 (Homo sapiens); assay: blockers of CCL20-driven beta-arrestin recruitment to CCR6 – cell-based, CHO-K1, luminescence, uHTS, primary screen (AID 493098); conditions: CHO-K1 CCR6 PathHunter beta-arrestin, CCL20-stimulated, at 20 µM, active compounds read high;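 note: cells stimulated with CCL20 at 14 nM final; plate controls were DMSO with CCL20 for no effect and DMSO without agonist for full effect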
Out of some 340,000 compounds screened, about 1,700 (0.5%) were called active. The entries come from a sample that favours actives as a whole.
Entries and their inhibition values follow.
Form entry: value (%) — number only.

INSERT INTO assay_data (compound, observed) VALUES
  ('COc1ccc(OC(C)C(=O)Nc2cccnc2)cc1 (stereo not drawn)', 9.87);

Ask: Item under review: `C#CCOc1ccc(/C=C2/C(=O)NN(c3ccccc3)C2=O)cc1OC` . Reported inhibition?
Reply: 12

Ask: Item under review: `CCOc1ccc2[nH]c3nc(SCC(=O)NC4CCCC4)nnc3c2c1` . Reported inhibition?
Reply: 15.4

====

molecular target: C-C chemokine receptor type 6 (Homo sapiens) (UniProt P51684); assay: blockers of CCL20-driven beta-arrestin recruitment to CCR6 – cell-based, CHO-K1, luminescence, uHTS, primary screen (AID 493098); conditions: CHO-K1 CCR6 PathHunter beta-arrestin, CCL20-stimulated, at 20 µM, active compounds read high;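 note: cells stimulated with CCL20 at 14 nM final; plate controls were DMSO with CCL20 for no effect and DMSO without agonist for full effect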
Sequence (P51684 whole entry, looked up): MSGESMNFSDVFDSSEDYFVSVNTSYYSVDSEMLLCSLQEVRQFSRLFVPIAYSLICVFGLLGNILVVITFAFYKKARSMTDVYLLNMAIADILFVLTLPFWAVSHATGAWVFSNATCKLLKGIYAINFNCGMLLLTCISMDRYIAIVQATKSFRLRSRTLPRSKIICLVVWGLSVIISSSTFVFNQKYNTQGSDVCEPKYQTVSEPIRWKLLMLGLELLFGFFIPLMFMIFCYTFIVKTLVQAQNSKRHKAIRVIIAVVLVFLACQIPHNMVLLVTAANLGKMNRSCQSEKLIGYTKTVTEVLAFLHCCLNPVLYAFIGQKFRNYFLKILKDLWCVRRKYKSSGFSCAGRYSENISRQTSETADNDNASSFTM
The whole screen tested about 340,000 compounds, of which about 1,700 (0.5%) were called active. The sample holds actives, similar compounds and a random draw of the others, so the mix is not that of the screen.
Entries and their inhibition values follow.

Worked examples follow.
INSERT INTO assay_data (compound, observed) VALUES
  ('COc1ccccc1C1SCCN1C(=O)c1ccc([N+](=O)[O-])cc1 (centres undefined)', '-4.39% (inactive)'),
  ('NCC(=O)c1cccc2ccc[n+]([O-])c12', '-4.01% (inactive)'),
  ('N#CCCn1cnc2ccccc21', '8.21% (inactive)');

Ask: Item under review: `COc1ccc2sc(-c3ccc(N(C)C)cc3)c(C#CCO)c2c1` . Reported inhibition?
Reply: -34.2% (inactive)

====

target: C-C chemokine receptor type 6 (Homo sapiens) (UniProt P51684); experiment: blockers of CCL20-driven beta-arrestin recruitment to CCR6 – cell-based, CHO-K1, luminescence, uHTS, primary screen (AID 493098); settings: CHO-K1 CCR6 PathHunter beta-arrestin, CCL20-stimulated, at 20 µM;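 note: cells stimulated with CCL20 at 14 nM final; plate controls were DMSO with CCL20 for no effect and DMSO without agonist for full effect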
In all, about 340,000 compounds went through this assay and about 1,700 (0.5%) were called active.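 How the source made its calls: active means compounds whose inhibition of the agonist-driven luminescence signal at 20 µM reaches about 50% (limit read from the data); inactive means the rest.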 Many of the other results were omitted from the sample, so actives are more common in it than they were.
# valid calls are active, inactive; nothing else

Use the examples below as a reference point.
INSERT INTO assay_data (molecule, classification) VALUES
  ('CCCC1CCC(=NNC(=S)NCCc2ccccc2)CC1 (stereo not drawn)', 'active'),
  ('CCC(CC)c1nnc(NC(=O)C2=COCCO2)s1', 'inactive');

Okay, now this molecule:
Ask: Outcome? `CN(CC(=O)O)C(=O)c1ccccc1`
Reply: inactive

Every entry's value here was drawn from PubChem BioAssay AID493098.
